Tested on: SF-539
EXPERIMENTAL_DETAILS: NCI tumour cell line growth inhibition, 48 h
Active and inactive are the calls of the source. Rule as the data show it: active = GI50 up to about 1.1 µM and inactive = higher.
Outcome codes: label 1 for active, label 0 for inactive

* Cc1nn(C(=O)c2ccc(Cl)cc2)c2c1C(c1ccccc1)SC(=N)N2 (configuration not stated) | label 0
* CC(=O)Nc1cc2c(s1)CCC1CC(=O)NN=C21 (configuration not stated) | label 0
* COC1/C=C\C=C(/C)C(=O)NC2=CC(=O)C(NCCCl)=C(CC(C)CC(OC)C(O)C(C)/C=C(/C)C1OC(N)=O)C2=O (configuration not stated) | label 1
* CC(=O)OCC1OC(n2cc(F)c(=O)[nH]c2=O)C(NC(=O)N(CCCl)N=O)C(OC(C)=O)C1OC(C)=O (configuration not stated) | label 0
* O=C(/C=C\c1ccc(Cl)c(Cl)c1)c1ccc(Cl)cc1Cl | label 0
* CN(C)c1ccc(-c2nc(N)nc3c2CCCC3)cc1 | label 0
* Nc1ncnc2c1ncn2C1OC(CO)C2OC21 (configuration not stated) | label 0
* CCN(CC)CCC(=O)c1ccc(Cl)c(Cl)c1 | label 0
* COC(=O)C12OCC34C(CC5C(C)=CC(=O)C(O)C5(C)C3C(O)C1O)OC(=O)C(OC(=O)CC(C)C)C24 (configuration not stated) | label 1
* O=Cc1ccc(Oc2c3ccccc3nc3ccccc23)cc1 | label 0
* CCCc1c(C(=O)OCC)[nH]c(C(=O)CCC(=O)c2[nH]c(C(=O)OCC)c(CCC)c2C(=O)OCC)c1C(=O)OCC | label 0
* O=C1CCC2(CC1CC[S+]([O-])c1ccccc1)OCCO2 (configuration not stated) | label 0
* Cc1nc2c(O)c3c(c(O)c2nc1C)C1C=CC3CC1 | label 0
* c1ccc2c(c1)OCCc1cn[nH]c1-2 | label 0
* C=CCOCn1ccc(N)nc1=O | label 0
* CN1CCN(Cc2cc3c(nn2)-c2ccccc2C3=O)CC1 | label 0
* COc1ccc2c(c1O)-c1cc(O)cc3c1[C@@H](C2)N(C)CC3 | label 0
* O=C(O)[C@@H](NS(=O)(=O)c1ccc([N+](=O)[O-])cc1)c1ccccc1 | label 0
* COC(=O)c1c(C)cccc1C1CN=NC12Cc1cc(C)cc(C)c1C2=O (configuration not stated) | label 0
* O=C1C(=Cc2ccco2)C(=O)C2CCCCC12 (configuration not stated) | label 0
* O=C(O)/C(=C/c1ccccc1[N+](=O)[O-])c1cccs1 | label 0
* COc1cc(-c2cc(=O)c3c(O)c(CC=C(C)C)c(O)cc3o2)ccc1O | label 0

---

Tested on: NCI-H23
EXPERIMENTAL_DETAILS: NCI tumour cell line growth inhibition, 48 h
Active and inactive are the calls of the source. Cut-off read from the data, not from the text of the source: active = GI50 up to about 1.1 µM and inactive = higher.
ASSAY_METRIC: GI50

- CCCCOc1ccc(S(=O)(=O)N/C(N)=N/c2ccc(Cl)cc2)cc1: 15.7 µM (inactive)
- CC(=O)Nc1cc2c(s1)CCC1CC(=O)NN=C21 (stereo not drawn): > 100 µM (inactive)
- COc1ccc(C2SCc3nc4ccccc4n32)cc1 (stereo not drawn): 4.04 µM (inactive)
- COC(=O)Cc1cc(OC)c(OC)cc1Br: > 100 µM (inactive)
- c1ccc2c(OCC3CO3)ccc(OCC3CO3)c2c1 (stereo not drawn): 2.51 µM (inactive)
- C=C(CN(C)C)C(=O)c1ccc(Oc2ccccc2)cc1: 7.71 µM (inactive)
- C=C[C@]1(C)CC(=O)C(C(C)C=O)[C@]12C(=O)Oc1cccc(C)c1C2=O (stereo partly drawn): 17.1 µM (inactive)
- COc1cc(OC)c2c(c1OC)OCC(Cc1ccc(O)cc1)C2=O (stereo not drawn): > 25 µM (inactive)
